- SUBJECT_OF_TEST: HRgpA-6H (Porphyromonas gingivalis) (UniProt P28784)
- TEST_PROTOCOL: ELISA, coated HRgpA-6H
Measured Ratio OD(Variant)/OD(WT) by item

| BINDER | Ratio OD(Variant)/OD(WT) |
| --- | --- |
| KB001 mouse Fab VH I31F (Fab, V domains shown) VH: EVQLKQSGPGLVAPSQSLSITCTVSGFSLSFYSVHWVRQPPGKGLEWLGMIWGGGSSDYNSALKSRLSISKDNSKSQVFLKMNSLQTDDTAMYYCARNGNFYAMDYWGQGTSVTVSS VL: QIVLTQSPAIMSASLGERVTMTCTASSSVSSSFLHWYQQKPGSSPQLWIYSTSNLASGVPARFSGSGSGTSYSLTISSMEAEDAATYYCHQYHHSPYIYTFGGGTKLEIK | 0.892 |
| KB001 mouse Fab VL T100M (Fab, V domains shown) VH: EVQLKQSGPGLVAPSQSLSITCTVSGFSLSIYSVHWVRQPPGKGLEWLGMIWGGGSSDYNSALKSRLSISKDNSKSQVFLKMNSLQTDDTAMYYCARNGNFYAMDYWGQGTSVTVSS VL: QIVLTQSPAIMSASLGERVTMTCTASSSVSSSFLHWYQQKPGSSPQLWIYSTSNLASGVPARFSGSGSGTSYSLTISSMEAEDAATYYCHQYHHSPYIYMFGGGTKLEIK | 1.12 |

Origin of the recorded values: patent US20240400654A1
